Tested on: A431 cells
Assay: Cell viability assay (Cell TiterGlo), A431 cells
Type: cell-based
Settings: Homo sapiens, A-431, 24 hours
Hi there, I'd appreciate the recorded EC50 for every entry that follows.
Expressed in nM, but write only the number.

Fill in: EC50 of Fc1cncc(Cn2cnc3ccc(-c4ccnc5[nH]c(C6CCNCC6)cc45)cc32)c1 is ___
130

Fill in: EC50 of Fc1cccc(Cn2ccc3ncc(-c4ccnc5[nH]c(C6CCNCC6)cc45)cc32)c1 is ___
33

Fill in: EC50 of CS(=O)(=O)N1CCC(c2cc3c(-c4ccc5ncn(Cc6cccc(F)c6)c5c4)ccnc3[nH]2)CC1 is ___
9

Fill in: EC50 of Fc1cccc(Cn2ccc3cc(F)c(-c4ccnc5[nH]c(C6CCNCC6)cc45)cc32)c1 is ___
110

Fill in: EC50 of Fc1cccc(Cn2cnc3ccc(-c4ccnc5[nH]c(C6=CCNCC6)cc45)cc32)c1 is ___
4

Fill in: EC50 of N#Cc1cn(Cc2cccc(F)c2)c2cc(-c3ccnc4[nH]c(C5CCN(CC(O)CO)CC5)cc34)ccc12 (stereo not shown) is ___
71

Fill in: EC50 of Fc1cccc(Cn2cnc3ccc(-c4ccnc5[nH]c(C6CCNCC6)cc45)cc32)c1 is ___
12
